FYI, the data here is from ChEMBL document CHEMBL5614404.

Answer each item with its documented EC50.
target desc: RNA-directed RNA polymerase (Influenza A virus (strain A/Puerto Rico/8/1934 H1N1), UniProt P03428+P03431+P03433)
assay overview: Inhibition of Influenza A virus RdRp transfected in HEK293T cells co-expressing PA/PB1/PB2/NP/firefly luciferase/Renilla luciferase assessed as impaired nuclear import preincubated for 4 hrs followed by medium replacement with compound measured after 20 hrs by minireplicon assay
Expressed in nM, but write only the number.

Ask | Need EC50, item O=C(Nc1sc2c(c1C(=O)Nc1ccccc1O)CCCCC2)c1ccc([N+](=O)[O-])cc1O
Reply | 130

Ask | Input NC(=O)c1ncn([C@@H]2O[C@H](CO)[C@@H](O)[C@H]2O)n1 [RIBAVIRIN]
Reply | 21700

Ask | Input N#Cc1ccc(C(=O)Nc2sc3c(c2C(=O)Nc2ccccc2O)CCCCC3)cc1
Reply | 32

====

target desc: RNA-directed RNA polymerase (Influenza A virus (strain A/Puerto Rico/8/1934 H1N1), UniProt P03428+P03431+P03433)
assay overview: Inhibition of Influenza A virus RdRp transfected in HEK293T cells co-expressing PA/PB1/PB2/NP/firefly luciferase/Renilla luciferase preincubated for 4 hrs followed by medium replacement with compound measured after 20 hrs by minireplicon assay
Answer each item with its documented pIC50.
# reply with the number alone; pIC50 is -log10 of concentration in mol/L

Ask | Need pIC50, item O=C(Nc1sc2c(c1C(=O)Nc1nccs1)CCCCC2)c1ccccc1O
Reply | 6.48

Ask | Input O=C(Nc1sc2c(c1C(=O)Nc1ccc(F)cc1)CCCCC2)c1ccccc1O
Reply | 6.33

Ask | Input O=C(Nc1sc2c(c1C(=O)Nc1ccccn1)CCCCC2)c1ccccc1O
Reply | 5.55

Ask | Input O=C(Nc1sc2c(c1C(=O)Nc1ccc(Cl)cc1)CCCCC2)c1ccccc1O
Reply | 6.00

Ask | Input O=C(Nc1sc2c(c1C(=O)Nc1ccccn1)CCCCC2)c1ccc([N+](=O)[O-])cc1
Reply | 6.57

====

System: Influenza A virus
assay overview: Antiviral activity against Amantadine/Oseltamivir-resistant Influenza A virus North Carolina/39/2009 (H1N1) infected in MDCK cells by plaque reduction assay
Assay type: functional, organism-based
measure: pEC50
# reply with the number alone; pEC50 is -log10 of concentration in mol/L

Ask | Need pEC50, item O=C1C(c2ncc([N+](=O)[O-])s2)CC[C@@H]2CCCC[C@@H]12 (stereo partly specified)
Reply | 6.03
